# TARGET SYSTEM: Cyclooxygenase (Rattus norvegicus, UniProt P35355+Q63921)
# ASSAY NAME: In vitro for prostaglandin G/H synthase inhibitory activity against rat basophil leukemia type 1 cell homogenates, by measuring the radioactivity of [14C]-PGD2
Quick reference: IC50 of the listed items.

{"COMPOUND": "O=c1c(O)c(-c2ccc(O)c(O)c2)oc2cc(O)cc(O)c12", "UNIT TAG": "µM", "CENSOR SYMBOL": ">", "IC50": 50}
{"COMPOUND": "CCOC(=O)C(=CC=C(SC)C(=O)c1ccccc1)N(C)C", "UNIT TAG": "µM", "CENSOR SYMBOL": ">", "IC50": 50}
{"COMPOUND": "CCO/C(O)=C(/C=CC(=O)C(=O)c1ccccc1)Sc1ccccc1", "UNIT TAG": "µM", "CENSOR SYMBOL": "=", "IC50": 12}
{"COMPOUND": "NC1=NN(c2cccc(C(F)(F)F)c2)CC1 [BW-755C]", "UNIT TAG": "µM", "CENSOR SYMBOL": "=", "IC50": 6}
{"COMPOUND": "CC(Cc1ccc(O)c(O)c1)C(C)Cc1ccc(O)c(O)c1 (stereo not given) [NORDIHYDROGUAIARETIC ACID]", "UNIT TAG": "µM", "CENSOR SYMBOL": ">", "IC50": 50}

###

# Test system: Mus musculus
# ASSAY NAME: In vivo inhibition of AA induced ear oedema in mice following topical administration.
# Type: functional
Label fulfilled when ED50 is strictly below 1 mg ear-1; at or above that, label not fulfilled.

{"COMPOUND": "CCO/C(O)=C(/C=CC(=O)C(=O)c1ccccc1)Sc1ccccc1", "CLASS NAME": "not fulfilled"}
{"COMPOUND": "O=C(O)C(O)=CC=Cc1ccccc1", "CLASS NAME": "not fulfilled"}
{"COMPOUND": "CCOC(=O)C(=O)C=C/C(C(=O)c1ccccc1)=C(\\O)OCC", "CLASS NAME": "not fulfilled"}
{"COMPOUND": "NC1=NN(c2cccc(C(F)(F)F)c2)CC1 [BW-755C]", "CLASS NAME": "fulfilled"}
{"COMPOUND": "CC(C)(C)c1cc(/C=C2\\CCOC2=O)cc(C(C)(C)C)c1O", "CLASS NAME": "fulfilled"}
{"COMPOUND": "CCOC(=O)C(=CC=C(C(=O)OCC)N(C)C)Sc1ccccc1", "CLASS NAME": "not fulfilled"}
{"COMPOUND": "CCOC(=O)C(=O)C=C/C(Sc1ccccc1)=C(\\O)c1ccccc1", "CLASS NAME": "not fulfilled"}
{"COMPOUND": "CCOC(=O)C(=O)C=C/C(=C(\\O)OCC)c1ccccc1", "CLASS NAME": "not fulfilled"}
{"COMPOUND": "CC1=NN(CCOc2ccc3ccccc3c2)C(=O)C1", "CLASS NAME": "not fulfilled"}
{"COMPOUND": "CCOC(=O)C(=O)C=C/C(SCc1ccccc1)=C(\\O)OCC", "CLASS NAME": "not fulfilled"}
{"COMPOUND": "CC(Cc1ccc(O)c(O)c1)C(C)Cc1ccc(O)c(O)c1 (stereo not given) [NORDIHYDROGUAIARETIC ACID]", "CLASS NAME": "fulfilled"}
{"COMPOUND": "CCOC(=O)C(=O)C=C/C(O)=C(\\O)OCC", "CLASS NAME": "not fulfilled"}
{"COMPOUND": "CCO/C(O)=C(/C=CC=O)Sc1ccccc1", "CLASS NAME": "not fulfilled"}

###

# TARGET SYSTEM: Polyunsaturated fatty acid 5-lipoxygenase (Rattus norvegicus, UniProt P12527)
# Sequence (P12527 whole entry): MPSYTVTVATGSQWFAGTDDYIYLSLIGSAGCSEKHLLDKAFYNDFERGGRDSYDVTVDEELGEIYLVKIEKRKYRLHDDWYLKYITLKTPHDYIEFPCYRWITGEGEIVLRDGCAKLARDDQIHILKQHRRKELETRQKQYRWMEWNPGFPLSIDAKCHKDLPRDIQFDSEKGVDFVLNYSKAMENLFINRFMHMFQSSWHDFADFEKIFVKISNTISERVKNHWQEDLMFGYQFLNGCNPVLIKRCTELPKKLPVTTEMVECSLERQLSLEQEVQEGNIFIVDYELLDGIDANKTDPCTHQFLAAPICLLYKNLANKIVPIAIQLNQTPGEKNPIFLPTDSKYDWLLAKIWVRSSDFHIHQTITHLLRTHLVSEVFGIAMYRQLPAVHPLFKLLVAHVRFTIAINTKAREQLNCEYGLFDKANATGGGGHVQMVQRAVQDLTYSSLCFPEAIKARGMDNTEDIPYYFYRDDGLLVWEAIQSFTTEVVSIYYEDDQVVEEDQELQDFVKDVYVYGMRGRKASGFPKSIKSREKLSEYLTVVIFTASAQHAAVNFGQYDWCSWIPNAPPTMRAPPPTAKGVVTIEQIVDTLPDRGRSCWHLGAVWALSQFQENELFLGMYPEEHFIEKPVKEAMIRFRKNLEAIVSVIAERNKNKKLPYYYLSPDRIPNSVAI
# ASSAY NAME: In vitro inhibition of 5-lipoxygenase in rat (peritoneal assay)
pIC50: −log10 of the molar value.

{"MOLECULAR STRING": "CCO/C(O)=C(/C=CC(=O)C(=O)c1ccccc1)Sc1ccccc1", "pIC50": 5.52}

###

# TARGET SYSTEM: Polyunsaturated fatty acid 5-lipoxygenase (Rattus norvegicus, UniProt P12527)
# Sequence (P12527 whole entry): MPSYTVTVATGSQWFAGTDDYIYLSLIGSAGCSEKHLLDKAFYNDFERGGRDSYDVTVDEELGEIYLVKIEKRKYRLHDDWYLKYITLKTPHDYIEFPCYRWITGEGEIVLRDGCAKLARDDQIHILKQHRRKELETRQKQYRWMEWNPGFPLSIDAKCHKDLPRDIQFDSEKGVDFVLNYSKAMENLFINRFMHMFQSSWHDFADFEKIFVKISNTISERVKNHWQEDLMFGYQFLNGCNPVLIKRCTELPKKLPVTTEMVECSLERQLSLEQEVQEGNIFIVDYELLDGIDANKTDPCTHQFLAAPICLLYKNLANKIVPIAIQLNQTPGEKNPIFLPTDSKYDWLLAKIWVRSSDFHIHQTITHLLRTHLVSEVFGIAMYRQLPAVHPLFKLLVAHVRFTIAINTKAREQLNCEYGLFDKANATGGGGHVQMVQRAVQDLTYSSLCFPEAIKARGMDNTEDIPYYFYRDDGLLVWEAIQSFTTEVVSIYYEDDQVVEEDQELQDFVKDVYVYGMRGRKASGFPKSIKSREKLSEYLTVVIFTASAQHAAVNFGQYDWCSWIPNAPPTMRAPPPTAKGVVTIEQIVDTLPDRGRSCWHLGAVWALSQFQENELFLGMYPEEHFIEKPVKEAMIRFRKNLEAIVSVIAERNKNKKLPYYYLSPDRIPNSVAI
# ASSAY NAME: Iin vitro inhibition of 5-lipoxygenase activity in rat basophil leukemia type 1(RBL1) cell homogenates, (reduction of [14C]-5-HETE formation)
pIC50: −log10 of the molar value.

{"MOLECULAR STRING": "CCO/C(O)=C(/C=CC(=O)C(=O)c1ccccc1)Sc1ccccc1", "TARGET SYSTEM": "Polyunsaturated fatty acid 5-lipoxygenase (Rattus norvegicus, UniProt P12527)", "CENSOR SYMBOL": "=", "pIC50": 5.70}
{"MOLECULAR STRING": "CCOC(=O)C(=CC=C(SC)C(=O)c1ccccc1)N(C)C", "TARGET SYSTEM": "Polyunsaturated fatty acid 5-lipoxygenase (Rattus norvegicus, UniProt P12527)", "CENSOR SYMBOL": "<", "pIC50": 4.30}

Values from ChEMBL document CHEMBL1125118
